Tested on: hyperlipaemic SD male rats
Assay: Hypolipemizing activity, 5 days experimental model, modified Nath diet
Format: in vivo
Conditions: 120 h, rat, oral, 100 mg/kg/day, read-out: Cholesterol HDL (percent variation vs hyperlipaemic controls)
Where a name gives a salt, the structure may show the parent alone.
Entries annotated with measured change in vivo at 100 mg/kg/day
Expressed in %, but write only the number.

For orientation, consider the following solved cases.
- COMPOUND: "CC(C)COC(=O)c1ccc(OCC(CSc2nc3c(N)ncnc3n2[C@@H]2O[C@H](CO)[C@@H](O)[C@H]2O)=NO)cc1 [Example 31]"
  change in vivo at 100 mg/kg/day, %: 3.2
- COMPOUND: "CC(C)COC(=O)c1ccc(OCC(CSc2nc3ccccc3o2)OC(=O)c2cccnc2)cc1 (stereo not drawn) [Example 12]"
  change in vivo at 100 mg/kg/day, %: 12.5
- COMPOUND: "CC(C)COC(=O)c1ccc(OCC(=O)CSc2nc3c([nH]2)c(=O)n(C)c(=O)n3C)cc1 [Example 3]"
  change in vivo at 100 mg/kg/day, %: 11.7

## Task What value of change in vivo at 100 mg/kg/day has been reported for the following compound? CC(C)COC(=O)c1ccc(OCC(=O)CSc2nc3ccccc3o2)cc1 [Example 1]
## Result 2.6

## Task What value of change in vivo at 100 mg/kg/day has been reported for the following compound? CC(C)COC(=O)c1ccc(OCC(O)CSc2nc3ccccc3[nH]2)cc1 (stereo not drawn) [Example 18]
## Result 3.2

## Task What value of change in vivo at 100 mg/kg/day has been reported for the following compound? CC(C)COC(=O)c1ccc(OCC(O)CSc2ncccn2)cc1 (stereo not drawn) [Example 5, hydrochloride]
## Result -17.7

## Task What value of change in vivo at 100 mg/kg/day has been reported for the following compound? CCOc1ccc2nc(SCC(O)COc3ccc(C(=O)OCC(C)C)cc3)sc2c1 (stereo not drawn) [Example 9]
## Result 2.4

## Task What value of change in vivo at 100 mg/kg/day has been reported for the following compound? CC(C)COC(=O)c1ccc(OCC(CSc2nc3c(N)ncnc3n2[C@@H]2O[C@H](CO)[C@@H](O)[C@H]2O)=NNC(N)=O)cc1 [Example 33]
## Result 22.2

## Task What value of change in vivo at 100 mg/kg/day has been reported for the following compound? CC(C)COC(=O)c1ccc(OCC(O)CSc2nccn2C)cc1 (stereo not drawn) [Example 4, hydrochloride]
## Result -3.4
